system: HL-60; assay: Antiproliferative activity against human HL60 cells after 72 hrs by MTT assay; type: functional, cell-based; conditions: HL-60, 72 h
Assay readout: IC50 (nM)

[
  {
    "Structure": "C=C(Br)C(=O)Nc1ccc2c(c1)/C(=C\\c1cccs1)C(=O)N2",
    "Target under test": "HL-60",
    "Measurement units": "nM",
    "IC50": 15
  }
]

A: C=C(Br)C(=O)Nc1ccc2c(c1)/C(=C\c1ccsc1)C(=O)N2
B: C=C(Br)C(=O)Nc1ccc2c(c1)/C(=C\c1ccc(C)s1)C(=O)N2
C: C=C(Br)C(=O)Nc1ccc2c(c1)/C(=C/c1ccc[nH]1)C(=O)N2
D: C#CC(=O)Nc1ccc2c(c1)/C(=C/c1ccc[nH]1)C(=O)N2
With regard to IC50, arrange the entries in ascending order, please. Answer by naming the labels in the order asked. B, C, A, D
(B: 12 nM, C: 140 nM, A: 770 nM, D: 5800 nM)

* * *

tested on: HL-60; test: Antiproliferative activity against human HL60 cells after 72 hrs by MTT assay; format: functional, cell-based; details: HL-60, 72 h
Assay readout: IC50 (nM)

[
  {
    "Structure": "C=C(Br)C(=O)Nc1ccc2c(c1)CC(=O)N2",
    "IC50 (nM)": 350
  }
]

a: C=C(Br)C(=O)Nc1ccc2c(c1)/C(=C\c1sccc1C)C(=O)N2
b: C=C(Br)C(=O)Nc1ccc2c(c1)/C(=C/c1ccsc1)C(=O)N2
c: C=C(Br)C(=O)Nc1ccc2c(c1)/C(=C/c1cccs1)C(=O)N2
d: C=C(Br)C(=O)Nc1ccc2c(c1)/C(=C/c1sccc1C)C(=O)N2
e: C=C(Br)C(=O)Nc1ccc2c(c1)/C(=C/c1ccc(C)s1)C(=O)N2
# sort list by recorded IC50, greatest to least Answer by naming the labels in the order asked. b, c, a, e, d

* * *

system: MCF7; test: Antiproliferative activity against human MCF7 cells after 72 hrs by MTT assay; type: functional, cell-based; settings: MCF7, 72 h
Assay readout: IC50 (nM)

The examples below pair each entry with its known result.
[
  {
    "Structure": "C=C(Br)C(=O)Nc1ccc2c(c1)/C(=C/c1cccs1)C(=O)N2",
    "Reported result": 1700
  },
  {
    "Structure": "C#CC(=O)Nc1ccc2c(c1)/C(=C/c1ccc[nH]1)C(=O)N2",
    "Reported result": 3700
  },
  {
    "Structure": "C=C(Br)C(=O)Nc1ccc2c(c1)/C(=C/c1ccsc1)C(=O)N2",
    "Reported result": 2800
  },
  {
    "Structure": "C=C(Br)C(=O)Nc1ccc2c(c1)CC(=O)N2",
    "Reported result": 3300
  },
  {
    "Structure": "C=C(Br)C(=O)Nc1ccc2c(c1)/C(=C\\c1cccs1)C(=O)N2",
    "Reported result": 2300
  },
  {
    "Structure": "C=C(Br)C(=O)Nc1ccc2c(c1)/C(=C\\c1sccc1C)C(=O)N2",
    "Reported result": 2300
  },
  {
    "Structure": "C=C(Br)C(=O)Nc1ccc2c(c1)/C(=C/c1sccc1C)C(=O)N2",
    "Reported result": 2600
  }
]

a: C=C(Br)C(=O)Nc1ccc2c(c1)/C(=C\c1ccsc1)C(=O)N2
b: C=C(Br)C(=O)Nc1ccc2c(c1)/C(=C/c1ccc(C)s1)C(=O)N2
c: C=C(Br)C(=O)Nc1ccc2c(c1)/C(=C\c1ccc(C)s1)C(=O)N2
d: C=C(Br)C(=O)Nc1ccc2c(c1)/C(=C/c1ccc[nH]1)C(=O)N2
# sort list by recorded IC50, greatest to least Answer by naming the labels in the order asked. c, b, a, d
(c: 4400 nM, b: 3000 nM, a: 2100 nM, d: 700 nM)
